Quick list: melting point per entry.
measured quantity: melting point

compound	measured quantity	data value
O=C1C2CC3CC1CC(c1cc(Br)ccc1O)(C3)C2	melting point	287 to 289 °C
O=C(NO)c1cnc(NS(=O)(=O)c2ccc(C(=O)Nc3ccc(Cl)c(-c4ccccn4)c3)c(Cl)c2)nc1	melting point	215 to 220 °C
N#Cc1cc(-c2ccoc2)c2ccc(OCc3cccc(-c4ccc(F)cc4)n3)cc2c1	melting point	168 to 170 °C
CC(C)(C)OC(=O)CCON=C(C(=O)O)c1ccco1	melting point	74.7 to 77.2 °C
CCNC(=O)CC1CCN(Cc2cnc3c(C)c(NC(=O)c4ccc(-c5ccc(F)cc5)cc4)ccc3c2)CC1	melting point	243 to 245 °C
CC(CC(=O)OCc1ccccc1)NC(=O)CCNC(=O)OC(C)(C)C (centres undefined)	melting point	70 to 72 °C
CN(C)CCOC(=O)c1cc(F)ccc1Nc1ccnc2c(Cl)cccc12	melting point	121 to 122 °C
COC(=O)c1snc(-c2ccc(C#N)cc2)c1C(=O)OC	melting point	134 to 135 °C
COc1ccc(C(=O)Oc2ccccc2)nc1C	melting point	103 to 105 °C

###

Quick list: melting point per entry.

compound	melting point
ClCCCOc1ccc(Cl)cc1	35 to 36 °C
CC1=NC(Cc2ncc(Br)cn2)C(Br)=CN1 (stereo unspecified)	176 °C
CC(O)(Cn1ccnc1)c1ccc2c(c1)Cc1ccccc1-2 (stereo unspecified)	183 to 184 °C
O=[N+]([O-])c1cc(Cc2cc(Cl)ccc2O)c(O)c(Cc2cc(Cl)ccc2O)c1	220 °C
CCOC(=O)c1cc2c(=O)n(C3CCCC3)c3ccccc3n2c1	183 to 185 °C
C(#Cc1ccsc1)c1cccnc1	62 °C

###

Quick list: melting point per entry.

compound	melting point
O=C(O)CSc1ccc(-n2cc(C3c4ccccc4C=Cc4ccccc43)c(=S)[nH]c2=O)nn1	248 to 250 °C
CN(C)c1ccc(NC(=O)N(C[C@@H]2CCCC[C@H]2CN(C(=O)Nc2ccc(N(C)C)cc2)C2CCCCCC2)C2CCCCCC2)cc1 (relative stereo)	107 to 112 °C
CC1=C(C(O)(c2ccc(C)cc2)C2SCSCS2)CN(C)O1 (centres undefined)	150 to 152 °C
CCOC(=O)C(Cc1cccc(OCC(F)(F)F)c1)C(=O)c1ccc(F)cc1 (centres undefined)	48 to 49 °C
COC1(c2cc(F)cc(F)c2)CCOCC1	100 °C
CCOC(=O)C1=C(N)C(OCC)=NS1(=O)=O	163 to 165 °C
Cc1ccc(N(c2ccc(C)cc2)c2ccc(-c3ccc(-c4ccc(N(c5ccc(C)cc5)c5ccc(C)cc5)cc4)cc3)cc2)cc1	232 to 234 °C
CCc1nccc2c(CC(=O)O)cccc12	166 to 181 °C
CCCCOc1c(CNC(=O)OC(C)(C)C)n(CC2CC2)c(=O)c2ccc(C=O)cc12	151 to 152 °C

###

measured quantity: melting point

compound	measured quantity	data value
COc1cccc(CN2C(=O)C3CCCC3N(C(=O)CN3C(=O)c4ccccc4C3=O)c3ccccc32)c1 (stereo not drawn)	melting point	193 to 194 °C
[N-]=[N+]=NCC(=O)c1cn2c3c(cccc13)CCC2	melting point	92 to 93 °C
C[C@@H](C(N)=O)c1ccc(NS(C)(=O)=O)c(F)c1	melting point	40 to 42 °C
C=C(C)OC(=O)N1C(=O)[C@H](C)Nc2nc(Cl)ccc21	melting point	86 to 87 °C
CC(C)(C)NC(=O)[C@@H]1C[C@H](N2CCOCC2)CN1C(=O)[C@@H](O)[C@H](Cc1ccccc1)NC(=O)[C@H](CC(N)=O)NC(=O)OCc1ccccc1	melting point	115 to 117 °C
O=C(CCCCCCNC(=O)c1ccc(C(F)(C(=O)Nc2cccc3cccnc23)C(=O)Nc2cccc3cccnc23)cc1)NO	melting point	120 to 122 °C
CCOC(=O)C1=C(C)NC(C)=C(C(=O)OCC)C1c1ccccc1/C=C(\CC)C(=O)OCC	melting point	92 to 94 °C
CSc1ccc2c(C3CCN(C(C)=O)CC3)nn(-c3ccccc3)c2c1	melting point	120 to 122 °C

###

Quick list: melting point per entry.

compound	melting point
CN(C)c1ccccc1CSC1=NC(SCc2ccccc2)=NC1(C)C	91 to 92 °C
CCOC(=O)C(NC(=O)CNC(=O)CC)C(=O)OCC	120 to 122 °C
O=C(O)Cc1cc2c(s1)-c1ccccc1SC2	106 to 110 °C
O=C(O)c1ccc([N+](=O)[O-])cc1C(F)(F)F	128 to 129 °C
C[Si](C)(C)CC(O)(Cn1nc[nH]c1=S)c1ccc(F)cc1 (stereo unspecified)	107 °C
C[C@H]1CC(=O)N1c1ccc(C(=O)OCc2ccccc2)cc1	89 °C
Nc1cc(F)ccc1C(=O)NCCN1CCC(n2c(=O)[nH]c3ccccc32)CC1	229 °C
O=Cc1cccc(-c2cccc3ccccc23)n1	65 to 66 °C
CC(=O)Oc1ccc(N=c2scc(-c3ccc(Cl)c(S(=O)(=O)N(C)C)c3)n2C)cc1	173 to 174 °C
CCCC1=C(C(=O)OCC)C(c2ccccc2Cl)c2cn(C(=O)OC)nc2N1 (stereo unspecified)	141 to 143 °C
CC(O)c1nn(Cc2ccccc2)c(=O)o1 (stereo unspecified)	70 °C
O=CC(=O)c1ccc(OCc2ccccc2)c(CO)c1	180 to 181 °C
N=C(N)NCCCCOc1cccc2c1NC(=O)C(CC(=O)O)C2 (stereo unspecified)	207 to 210 °C
C=CS(=O)(=O)c1c(Cl)c(Cl)nn1C	66 to 69 °C
CSC1C(=O)Nc2c(Nc3ccc(Cl)cc3)cccc21 (stereo unspecified)	190 to 192 °C
CC(C)Oc1nc(N)nc2ccc(-c3ccc(F)cc3)nc12	191 to 192 °C
Cc1oc(C(C)(C)C)nc1COc1ccc(CC(OC(C)C)C(=O)O)c2sccc12 (stereo unspecified)	166 to 167 °C
NC(=O)c1c(-c2ccc(Cl)cc2)csc1N	150 to 151 °C
NC(=O)c1ccc(-c2ccc(Oc3ccc(F)cc3)cc2)[nH]1	218 to 220 °C
CCOC(=O)Nc1nc(-c2ccccc2)c(-c2nc3ccccc3c(=O)n2-c2ccc(C)cc2)s1	> 275 °C
CN(CCO)S(=O)(=O)c1cc(NC(=O)c2cnn3c(C(F)(F)F)cc(-c4ccc(C(F)(F)F)cc4)nc23)c(Cl)s1	221 °C

###

Quick list: melting point per entry.
measured quantity: melting point

compound	measured quantity	data value
O=CCC1Cc2cc(Cl)c(Cl)cc2C1=O (racemic)	melting point	93 to 96 °C
C=C(c1ccc(N(C)C)cc1)c1ccc(N2CCCC2)cc1C	melting point	90 to 93 °C
O=C1NC(=O)[C@@]2(C[C@@H](C(=O)NCCN3CCN(C(c4ccccc4)c4ccccc4)CC3)Oc3ccc(F)cc32)N1	melting point	200 to 205 °C
OC1CSC(Oc2ccccc2-c2nc3ccccc3s2)C(O)C1O (stereo not given)	melting point	196 °C
COC(=O)CCCc1cc2nc(Cl)ccc2n1S(=O)(=O)c1c(F)cccc1F	melting point	107 to 109 °C

###

Quick list: melting point per entry.
measured quantity: melting point

compound	data value
CC1Cc2ccc(Cl)cc2C(c2ccc([N+](=O)[O-])cc2)=NN1 (stereo unspecified)	132 to 135 °C
CCOC(=O)CNC(=O)C(C)(C(C)C)C(C)C	74.5 to 75.5 °C
CC(C)n1cc(-c2ccc(NC(=O)c3ccccc3)cc2)c2c(N)ncnc21	192 to 195 °C
CC(C)(C)CCN[C@@H](CC(=O)O)C(=O)O	184 to 186 °C
C#Cc1ccc(OC2CCCCO2)cc1 (stereo unspecified)	65 °C
CCCC(CCC)C(=O)OC1N=C(c2ccccc2F)c2cc(Cl)ccc2NC1=O (stereo unspecified)	147 to 149 °C

###

measured quantity: melting point

compound	data value
CC(C)(CF)C(=O)Cn1cncn1	59 °C
O=c1[nH]c2ccccc2n1CCCN1CCC(n2c(=S)[nH]c3ccccc32)CC1	248 °C
Cc1ccccc1-c1ccc(C(=O)N2Cc3ccc(C(=O)NCc4ccc(OC(F)(F)F)cc4)n3Cc3ccccc32)cc1C	147 to 149 °C
COc1ccc(NC(C)=O)cc1OC(F)F	129 to 130 °C
O=C(O)CCCOc1cccc(OCCC(c2ccccc2)(c2ccccc2)c2ccccc2)c1	53 to 55 °C
CON=C(C#N)c1ccccc1COc1ccc(Cl)cc1	69 to 71 °C
COC(=O)C(c1ccccc1)C(c1ccc(OC)cc1)n1cncn1 (stereo not given)	159 to 161 °C
CCOC(=O)CC(=O)Nc1sc(CC)cc1C(=O)c1ccccc1Cl	56 to 57 °C
Nc1ccc2c(c1)C(c1ccccc1Cl)=CCC(=O)N2	192 °C
CCOC(=O)C(NC(=O)CCl)N(C(=O)CCl)c1cscn1 (stereo not given)	102 to 104 °C
